Assay: Cytotoxicity in HEK cells assessed as inhibition of cell growth at 50 ug/ml incubated for 72 hrs by MTT assay
Format: cell-based
Details: human, read-out: GI
measure.name: inhibition at 72 h, 50 ug/ml (%)
API: value field is a number in %; no unit string.

molecule	quantitative.result
O=C1CCCC2=C1C(c1cn(-c3ccc(Cl)cc3)nn1)c1c(ccc3ccccc13)O2 (centres undefined)	18.1
COc1ccc(-n2cc(C3C4=C(CC(C)(C)CC4=O)Oc4ccc5ccccc5c43)nn2)cc1 (centres undefined)	21.2
COc1ccc(-n2cc(C3C4=C(CCCC4=O)Oc4ccc5ccccc5c43)nn2)cc1 (centres undefined)	22.2

input: Quick check: inhibition at 72 h, 50 ug/ml of CC1(C)CC(=O)C2=C(C1)Oc1ccc3ccccc3c1C2c1cn(-c2ccc(Cl)cc2)nn1 (centres undefined) ?
output: 18.1

---

System: Escherichia coli
Assay: Antibacterial activity against Escherichia coli MTCC 1652 by agar dilution method
Type: functional
measure.name: MIC (µg/mL)
The answer is to be given in µg/mL; state only the numeric part.

compound	MIC, µg/mL
CC1(C)CC(=O)C2=C(C1)Oc1ccc3ccccc3c1C2c1cn(-c2ccccc2)nn1 (configuration not stated)	12.5
COc1ccccc1-n1cc(C2C3=C(CCCC3=O)Oc3ccc4ccccc4c32)nn1 (configuration not stated)	12.5
CC1(C)CC(=O)C2=C(C1)Oc1ccc3ccccc3c1C2c1cn(-c2cccc(C(F)(F)F)c2)nn1 (configuration not stated)	100
O=C1CCCC2=C1C(c1cn(-c3ccc(Cl)cc3)nn1)c1c(ccc3ccccc13)O2 (configuration not stated)	12.5
O=C1CCCC2=C1C(c1cn(-c3ccccc3)nn1)c1c(ccc3ccccc13)O2 (configuration not stated)	3.12

Next, consider the following compound.
input: What MIC value was documented for this compound, CC1(C)CC(=O)C2=C(C1)Oc1ccc3ccccc3c1C2c1cn(-c2ccccc2Cl)nn1 (configuration not stated) ?
output: 3.12

---

The following molecules are listed with their measured MIC values.
Test system: Candida albicans
Assay: Antifungal activity against Candida albicans MTCC 9062
Format: functional

molecule	result
O=C1CCCC2=C1C(c1cn(-c3ccc(O)cc3)nn1)c1c(ccc3ccccc13)O2 (stereo not drawn)	> 100 µg/mL
O=C1CCCC2=C1C(c1cn(-c3ccccc3Cl)nn1)c1c(ccc3ccccc13)O2 (stereo not drawn)	> 100 µg/mL

input: Which MIC value belongs to O=C1CCCC2=C1C(c1cn(-c3ccc([N+](=O)[O-])cc3)nn1)c1c(ccc3ccccc13)O2 (stereo not drawn) ?
output: > 100 µg/mL

---

Assay: Lipophilicity, log P of the compound
Format: physicochemical
Conditions: octanol/water
measure.name: logP
Answer field: number only, no words.

compound	quantitative.result
CC1(C)CC(=O)C2=C(C1)Oc1ccc3ccccc3c1C2c1cn(-c2ccccc2Cl)nn1 (stereo not drawn)	5.21
CC1(C)CC(=O)C2=C(C1)Oc1ccc3ccccc3c1C2c1cn(-c2cccc(C(F)(F)F)c2)nn1 (stereo not drawn)	5.57

Now look at this entry.
input: What logP value was documented for this compound, COc1ccccc1-n1cc(C2C3=C(CC(C)(C)CC3=O)Oc3ccc4ccccc4c32)nn1 (stereo not drawn) ?
output: 4.53

---

System: Klebsiella aerogenes
Assay: Antibacterial activity against Enterobacter aerogenes MTCC 111 by agar dilution method
Type: functional
measure.name: MIC

compound	result
O=C1CCCC2=C1C(c1cn(-c3ccc([N+](=O)[O-])cc3)nn1)c1c(ccc3ccccc13)O2 (stereo not drawn)	> 100 µg/mL
O=C1CCCC2=C1C(c1cn(-c3ccc(O)cc3)nn1)c1c(ccc3ccccc13)O2 (stereo not drawn)	> 100 µg/mL

Let us examine a further case.
input: Can you share its MIC? I mean this compound: "O=C(O)c1cn(C2CC2)c2cc(N3CCNCC3)c(F)cc2c1=O"
output: ≤ 6.25 µg/mL
